Assay: Tissue concentrations resulting from gavage of rats with RTMBE
Format: in vivo, rat (female Sprague-Dawley)
Conditions: rat, mammary gland, po; 14 mg/day by gavage, 7 days; read-out: RTMBE, Mammary Gland
assay readout: concentration at 168 h

Data request: # return recorded concentration at 168 h for entry COc1cc(COC/C=C(C)/C=C/C=C(C)/C=C/C2=C(C)CCCC2(C)C)cc(OC)c1OC
Data returned: 83300 ng/g

---

Please respond with reported Percent Inhibition of [3H] Retinol Binding (CRBP Assay) for every item in the list.
Molecular target: cellular retinol-binding protein (CRBP) (Rattus norvegicus, UniProt P02696)
Construct: portions of rat testes cytosol (1 mg protein) were incubated; from tissue; host or cells: rat testes cytosol
Assay: Binding to cellular retinol-binding protein (CRBP): inhibition of [3H]retinol binding, sucrose density-gradient sedimentation
Settings: 150-fold molar excess of unlabelled test retinoid; rat testes cytosol
// return the numeric value with its unit appended

Data request: # return recorded Percent Inhibition of [3H] Retinol Binding (CRBP Assay) for entry COc1cc(COC/C=C(C)/C=C/C=C(C)/C=C/C2=C(C)CCCC2(C)C)cc(OC)c1OC
Data returned: 66 ± 12%

Data request: # return recorded Percent Inhibition of [3H] Retinol Binding (CRBP Assay) for entry COc1cccc(COC/C=C(C)/C=C/C=C(C)/C=C/C2=C(C)CCCC2(C)C)c1OC
Data returned: 0%

Data request: # return recorded Percent Inhibition of [3H] Retinol Binding (CRBP Assay) for entry CC1=C(/C=C/C(C)=C/C=C/C(C)=C/COC(C)c2ccccc2)C(C)(C)CCC1 (stereo not drawn)
Data returned: 60 ± 0%

Data request: # return recorded Percent Inhibition of [3H] Retinol Binding (CRBP Assay) for entry CC1=C(/C=C/C(C)=C/C=C/C(C)=C/COCc2ccccc2)C(C)(C)CCC1
Data returned: 5 ± 5%

Data request: # return recorded Percent Inhibition of [3H] Retinol Binding (CRBP Assay) for entry COc1ccc(OC)c(COC/C=C(C)/C=C/C=C(C)/C=C/C2=C(C)CCCC2(C)C)c1
Data returned: 59 ± 13%

Data request: # return recorded Percent Inhibition of [3H] Retinol Binding (CRBP Assay) for entry COc1cccc(COC/C=C(C)/C=C/C=C(C)/C=C/C2=C(C)CCCC2(C)C)c1
Data returned: 20 ± 5%

---

Biological target: cellular retinol-binding protein (CRBP) (Rattus norvegicus)
Construct: portions of rat testes cytosol (1 mg protein) were incubated; from tissue; host or cells: rat testes cytosol
Sequence (P02696 1-135): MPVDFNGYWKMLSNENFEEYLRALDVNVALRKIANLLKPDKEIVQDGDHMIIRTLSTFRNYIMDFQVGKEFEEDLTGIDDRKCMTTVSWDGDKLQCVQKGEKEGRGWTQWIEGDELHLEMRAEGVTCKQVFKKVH
Test: Binding to cellular retinol-binding protein (CRBP): inhibition of [3H]retinol binding, sucrose density-gradient sedimentation
Conditions: 150-fold molar excess of unlabelled test retinoid; rat testes cytosol
assay readout: Percent Inhibition of [3H] Retinol Binding (CRBP Assay) (%)
Please respond with the number in % and leave the unit unwritten.

Data request: # return recorded Percent Inhibition of [3H] Retinol Binding (CRBP Assay) for entry COc1ccc(COC/C=C(C)/C=C/C=C(C)/C=C/C2=C(C)CCCC2(C)C)cc1 [Compound 3e, Retinyl 4-Methoxybenzyl Ether]
Data returned: 7

Data request: # return recorded Percent Inhibition of [3H] Retinol Binding (CRBP Assay) for entry COc1ccc(COC/C=C(C)/C=C/C=C(C)/C=C/C2=C(C)CCCC2(C)C)c(OC)c1OC [Compound 3i, Retinyl 2,3,4-Trimethoxybenzyl Ether]
Data returned: 5

Data request: # return recorded Percent Inhibition of [3H] Retinol Binding (CRBP Assay) for entry CC1=C(/C=C/C(C)=C/C=C/C(C)=C/COCc2ccc(Cl)cc2Cl)C(C)(C)CCC1 [Compound 3k, Retinyl 2,4-Dichlorobenzyl Ether]
Data returned: 0

Data request: # return recorded Percent Inhibition of [3H] Retinol Binding (CRBP Assay) for entry COc1ccc(COC/C=C(C)/C=C/C=C(C)/C=C/C2=C(C)CCCC2(C)C)cc1OC [Compound 3a, Retinyl 3,4-Dimethoxybenzyl Ether]
Data returned: 62

Data request: # return recorded Percent Inhibition of [3H] Retinol Binding (CRBP Assay) for entry CC1=C(/C=C/C(C)=C/C=C/C(C)=C/COCc2c(C)cc(C)cc2C)C(C)(C)CCC1 [Compound 3j, Retinyl 2,4,6-Trimethylbenzyl Ether]
Data returned: 7

Data request: # return recorded Percent Inhibition of [3H] Retinol Binding (CRBP Assay) for entry CC1=C(/C=C/C(C)=C/C=C/C(C)=C/COCc2cc(C)ccc2C)C(C)(C)CCC1 [Compound 3c, Retinyl 2,5-Dimethylbenzyl Ether]
Data returned: 65

Data request: # return recorded Percent Inhibition of [3H] Retinol Binding (CRBP Assay) for entry CC1=C(/C=C/C(C)=C/C=C/C(C)=C/COCc2c(Cl)cccc2Cl)C(C)(C)CCC1 [Compound 3l, Retinyl 2,6-Dichlorobenzyl Ether]
Data returned: 40

Data request: # return recorded Percent Inhibition of [3H] Retinol Binding (CRBP Assay) for entry CC1=C(/C=C/C(C)=C/C=C/C(C)=C/COCc2ccc(C)cc2)C(C)(C)CCC1 [Compound 3g, Retinyl 4-Methylbenzyl Ether]
Data returned: 0

Origin of the recorded values: patent US6281250A
